target or system: T1, USP38, Q8NB14
T1 chain: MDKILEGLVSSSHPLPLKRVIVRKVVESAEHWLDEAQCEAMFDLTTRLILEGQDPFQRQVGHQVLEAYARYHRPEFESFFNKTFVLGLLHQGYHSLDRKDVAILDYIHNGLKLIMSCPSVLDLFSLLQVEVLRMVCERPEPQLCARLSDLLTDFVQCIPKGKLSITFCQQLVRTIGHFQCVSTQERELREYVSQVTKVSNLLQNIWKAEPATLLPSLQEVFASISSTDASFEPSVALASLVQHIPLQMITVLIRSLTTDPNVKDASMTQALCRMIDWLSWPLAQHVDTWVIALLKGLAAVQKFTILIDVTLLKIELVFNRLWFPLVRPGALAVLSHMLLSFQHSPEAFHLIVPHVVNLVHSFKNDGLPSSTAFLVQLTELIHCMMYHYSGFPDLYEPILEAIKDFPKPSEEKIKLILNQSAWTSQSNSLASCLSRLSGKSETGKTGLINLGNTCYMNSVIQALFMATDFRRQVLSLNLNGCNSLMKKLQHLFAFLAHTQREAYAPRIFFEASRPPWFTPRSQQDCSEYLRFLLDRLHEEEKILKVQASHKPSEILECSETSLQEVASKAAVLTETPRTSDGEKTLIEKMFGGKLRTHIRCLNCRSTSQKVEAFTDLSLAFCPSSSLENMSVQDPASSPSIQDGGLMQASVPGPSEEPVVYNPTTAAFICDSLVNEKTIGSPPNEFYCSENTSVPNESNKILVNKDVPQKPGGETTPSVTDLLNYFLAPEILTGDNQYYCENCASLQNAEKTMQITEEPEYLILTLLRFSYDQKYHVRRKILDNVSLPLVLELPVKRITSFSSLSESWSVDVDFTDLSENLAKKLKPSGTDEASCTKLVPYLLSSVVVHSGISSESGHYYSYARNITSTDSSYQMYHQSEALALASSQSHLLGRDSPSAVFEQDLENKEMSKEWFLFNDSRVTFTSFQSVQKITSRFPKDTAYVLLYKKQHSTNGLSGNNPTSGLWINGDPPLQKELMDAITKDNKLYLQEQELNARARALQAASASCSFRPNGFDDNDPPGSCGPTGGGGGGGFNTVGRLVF
assay method text: median log2 fold change of GCK-ALFA target abundance (FLAG IP / Myc IP barcode read proportion) (log2 ratio); each designed protein is fused to an ALFA-tag nanobody in HEK293 cells to bring the named protein to FLAG-tagged glucokinase (GCK); Myc marks an untargeted standard; higher = target protein stabilised (more abundant)
condition: target protein: 3xFLAG-MCP-GCK-ALFA reporter; HEK293 landing pad (RPLP)
readout kind: median log2 fold change
Provide a numeric answer; units are not to be included.

Solved cases (5 shown):
usp_38_diff_out_1_147_13 (protein) SAADEADREAEAEAREKLRRFAWESLEELEKNRDKLSLDRLTIGAGGLLVVALELGDEELLLRVAALLLEDPEVLARVRARLSPEERARLEAAVARVRAA    -1.17
usp_38_diff_out_18_14_306 (protein) SEELAEAERSNLESLKKDVKEYTERVIKLLEKAKDDPERVKRIYERAKRNLAGVEEYAKEVLKRAKEAGDEETVKAAEELLKTIEEARKKVEEAYEKVMK    -0.549
usp_38_diff_out_18_28_367 (protein) SAAARAAAEARLAALTAELDELIDEATAEATAALTAHPDDAAVWALVDALFDALGAAAAALNRARELLREGGPLEEVEAALAQAEAELARARELLAQLRA    0.0424
usp_38_diff_out_17_26_230 (protein) AAEERRREARELMRELERRTAEALKEIEKLIEEGKLEEAEKKLDELVDEFTELATRLLELAADDDELFEEAVRVIDAAADRIAAAGNLLREAKKKKREEE    -0.167
usp_38_diff_out_18_14_285 (protein) SAELAAAEKSALEILKKDVKEFTKRVIRLLKKSKDDPERVKRIYDRAKRDLAGVEKYAQEVLKRAEKAGDKETKAAAKELLKEIEKAKEEIEKEYKEVMA    -0.615

# get_value(readout='median log2 fold change', item= usp_38_diff_out_5_164_587 (protein) MVEEYLKEMEKITEEAIKKLEELLAEAKKNPEKLDEYKKEIEKLVEKALNEINELVTKALEENPEKAEEILKKYDELVTKLLTAYQKAMKELEALKKEKA ) -0.281

Next binder up: usp_38_diff_out_18_14_277 (protein) SEELKEALKSNLESLKKDVEEDTKRVIELLDKRKDDPEEVKRIYERAKRNLAGVKEYAKEVLEEAEKAGDEETKKAAEELIKKAEEAEKKIEEKVKEVLA 0.312

Next binder up: usp_38_diff_out_1_101_9 (protein) MEAELAAAKAAFDAAAAALLKAAEDALAKIKAEGTPEQAAEMERHLAAIKSFIADSRKTLEEIAEQDKEAAIEFANAATTVLNILTAEVKEETARLLAKA -0.957

Next binder up: usp_38_diff_out_18_14_281 (protein) SEELSKALLSNLESLKKDVEEDTERVLRLLEKNKDDPERVKRIVERAERDLAGVIEYAKEVLELAKKNGDEETLKAAKELIKKAEEARKRIEEKAKKVLA 0.189

Next binder up: usp_38_diff_out_16_25_189 (protein) SVEALLKAHEELGEAAGYIVQARENKDKPEARELLKKAIESLEKALEILEKELKIDEKVAKEIREKIERARKLLEEGKPVEEVIKELEEALDLAIEALAK 0.371

Next binder up: usp_38_diff_out_1_162_43 (protein) DVEKVLEQAKELLEKAEKKIKEAEKALKEGKLEEAEKYLDEAWELLGQLAKLLREARRLRRELDPERQAEVTKKLKELNEKANKLIDKLTKLEEEVFLKK -1.34

Next binder up: usp_38_diff_out_2_35_491 (protein) AAAEAARREEIRRRIDEMVDEANELTAETLEKLAEADAPDEKFEELFEAYDELMRLLARTYRLIREGAPLEEIERALEEAERKLEEFKKLAEELKKEAEE 0.305
